Test description: HPLC capacity factor (k')
Format: ADME
Measurement name: Log k'

Smiles notation: NC1CN(c2cc3c(cc2F)c(=O)c(C(=O)O)cn3C2CC2)C1
Measurement name: Log k'
Data value: -0.0607

a. CCn1cc(C(=O)O)c(=O)c2cc(F)c(N3CC(C)(N)C3)nc21
b. C[C@H]1[C@H](N)CN1c1nc2c(cc1F)c(=O)c(C(=O)O)cn2-c1ccc(F)cc1F
c. CN(C)C1(C)CN(c2c(F)cc3c(=O)c(C(=O)O)cn(C4CC4)c3c2F)C1
stdin: Order the records, beginning with the lowest Log k' and ending with the highest. Present the labels in the sequence the task asks for.
stdout: a, b, c

I. C[C@@H]1[C@@H](CN)CN1c1cc2c(cc1F)c(=O)c(C(=O)O)cn2C1CC1
II. C[C@H]1[C@@H](N)CN1c1c(F)cc2c(=O)c(C(=O)O)cn(C3CC3)c2c1F
stdin: Quick one: lower Log k', I or II ? Reply with the label of the item you choose.
stdout: I
(I: -0.0607, II: 0.0813)

A. CNC1CN(c2c(F)cc3c(=O)c(C(=O)O)cn(C4CC4)c3c2F)C1
B. CCn1cc(C(=O)O)c(=O)c2cc(F)c(N3C[C@@H](N)[C@@H]3C)c(Cl)c21
stdin: Quick one: lower Log k', A or B ? Reply with the label of the item you choose.
stdout: A

a. Nc1c(F)c(N2CC(N)C2)c(F)c2c1c(=O)c(C(=O)O)cn2C1CC1
b. CC1(N)CN(c2nc3c(cc2F)c(=O)c(C(=O)O)cn3C2CC2)C1
stdin: Rank a against b by their Log k' values and give the higher one. Reply with the label of the item you choose.
stdout: a
(a: -0.0505, b: -0.1606)

====

Test description: HPLC capacity factor (k')
Type: ADME
Measurement name: Log k'

Use the examples below as a reference point.
Smiles notation: O=C(O)c1cn(C2CC2)c2cc(N3CCC3)c(F)cc2c1=O
Log k': 0.7188
--
Smiles notation: CC1(N)CN(c2cc3c(cc2F)c(=O)c(C(=O)O)cn3C2CC2)C1
Log k': -0.1249
--
Smiles notation: C[C@H]1[C@H](N)CN1c1c(F)cc2c(=O)c(C(=O)O)cn(-c3ccc(F)cc3)c2c1F
Log k': 0.1875
--
Smiles notation: CC1(N)CN(c2c(F)cc3c(=O)c(C(=O)O)cn(-c4ccc(F)cc4F)c3c2Cl)C1
Log k': 0.3448
--
Smiles notation: C[C@H]1[C@H](N)CN1c1nc2c(cc1F)c(=O)c(C(=O)O)cn2C(C)(C)C
Log k': 0.1644
--
Smiles notation: Nc1c(F)c(N2CC(N)C2)c(F)c2c1c(=O)c(C(=O)O)cn2-c1ccc(F)cc1F
Log k': 0.1424

1. C[C@H]1N(c2c(F)cc3c(=O)c(C(=O)O)cn(C4CC4)c3c2F)C[C@]1(C)N
2. CC1(N)CN(c2nc3c(cc2F)c(=O)c(C(=O)O)cn3C(C)(C)C)C1
3. C[C@H]1[C@H](N)CN1c1c(F)cc2c(=O)c(C(=O)O)cn(-c3ccc(F)cc3)c2c1Cl
stdin: Order the records, beginning with the lowest Log k' and ending with the highest. Present the labels in the sequence the task asks for.
stdout: 2, 1, 3
